- System: S. mutans
- measurementNotes: Formation of Semi-inhibition zone by fluoride varnish mixed with antibacterial substance (agar diffusion)
- Type: cell-based, Streptococcus mutans
- conditionSet: Table 4; substance mixed 1:1 with fluoride varnish; positive control = ampicillin alone
Collected Semi-inhibition zone, Fluoride varnish + 1 mM substance values appear next to each entry.
Entry rule: numbers only, all in mm.

Worked cases, answers included:
- CC(C)=CCC[C@@H](C)c1ccc(C)c(O)c1 [No. 1-2, xanthorrhizol]: 12.265
- CC(C)=CCC[C@@H](C)c1ccc(C)c(O)c1 [No. 1-1, xanthorrhizol]: 25.515
- CC(C)=CCc1cc(C(=O)/C=C/c2ccc(O)cc2)c(O)cc1O [No. 3, Bavachalcone]: 34.025
- CC1(C)C=Cc2cc(C(=O)/C=C/c3ccc(O)cc3)c(O)cc2O1 [No. 5, Bavachromene]: 20.79
- C=C[C@@](C)(/C=C/c1ccc(O)cc1)CCC=C(C)C [No. 2, Bakuchiol]: 22.87
- CC1(C)S[C@@H]2[C@H](NC(=O)[C@H](N)c3ccccc3)C(=O)N2[C@H]1C(=O)O [Positive control group, ampicillin, reference compound]: 13.55

// moving on: another record for Semi-inhibition zone, Fluoride varnish + 1 mM substance
Value of measured Semi-inhibition zone, Fluoride varnish + 1 mM substance for the entry CC1(C)C=Cc2c(ccc(C(=O)/C=C/c3ccc(O)cc3)c2O)O1 [No. 4, Isobavachromene] : 20.795
